System: SB.mhdgc-1
Assay: viability at highest tested concentration (MAXR) relative to DMSO; higher = less cytotoxic
Conditions: SB.mhdgc-1 (hereditary c.1380delA CDH1 gastric cancer)
quantity.measured: viability (%)
Give bare numbers, in %.

For each of the compounds below, note its viability.
1. CC(C)Nc1cc(C(F)(F)F)cc2nc(NC(=O)c3cccnc3)nn12 [S-99] (top concentration 46.0829 µM)
2. N#Cc1ccc(Oc2ccc3c(c2)COB3O)cc1 [AN2728] (top concentration 46.0829 µM)
3. CN1C(=O)C(=C/2N(C(=O)N(C3CC3)C(=O)C2=C1/NC4=CC=C(I)C=C4F)C5=CC=CC(=C5)NC(C)=O)\C [Trametinib] (top concentration 46.0829 µM)
4. C[C@@H]1C[C@H]2[C@@H]3CC\C4=C\C(=O)\C=C/[C@]4(C)[C@@]3(Cl)[C@@H](O)C[C@]2(C)[C@@]1(OC(=O)C5=CC=CO5)C(=O)CCl [Mometasone furoate] (top concentration 46.0829 µM)
5. CCCOc1ccc2[nH]c(NC(=O)OC)nc2c1 [Oxibendazole] (top concentration 46.0829 µM)
6. CCCC1=NC(=C2[N]1NC(=N\C2=O)/C3=CC(=CC=C3OCC)[S+]([O-])(=O)N4CCN(CC)CC4)C [Vardenafil] (top concentration 46.0829 µM)
7. CC(/C=C/C(=O)NO)=C\[C@@H](C)C(=O)c1ccc(N(C)C)cc1 [Trichostatin A] (top concentration 46.0829 µM)

A:
[68, 59.1, 35.8, 4.2, 53.5, 29.8, 10.6]

###

System: SB.mhdgc-1
Test: area under the dose-response curve of % viability (trapezoidal, 11 doses) (% viability x log10 concentration); higher = less cytotoxic
Conditions: SB.mhdgc-1 (hereditary c.1380delA CDH1 gastric cancer)
Task for the reader: assign each of the following compounds its reported area under the dose-response curve.
One number for each entry.

CC/1=C/N([C@@H]2C[C@@H](O)[C@H](CO)O2)C(=O)NC1=O [Telbivudine] (top concentration 46.0829 µM)    357

For each of the compounds below, note its area under the dose-response curve.
1. COc1cc2nc(-c3ccc(N4CCN(C)CC4)cc3)nc(NCCN3CCOCC3)c2cc1OC (top concentration 46.0829 µM)
2. O=NN(CCCl)C(=O)NC1CCCCC1 [Lomustine] (top concentration 46.0829 µM)
3. CCOc1cc2ncc(C#N)c(Nc3ccc(F)c(Cl)c3)c2cc1NC(=O)/C=C/CN(C)C [Pelitinib] (top concentration 46.0829 µM)

A:
[397, 551, 344]

###

Tested on: SB.mhdgc-1
Test: viability at highest tested concentration (MAXR) relative to DMSO; higher = less cytotoxic
Details: SB.mhdgc-1 (hereditary c.1380delA CDH1 gastric cancer)
Returns the class for an entry based on its viability. Class ranges: bottom bin: < 40%; middle bin: ≥ 40% and < 90%; top bin: ≥ 90%

Below are worked cases with known answers.
C#CCN[C@@H]1CCc2ccccc21.CS(=O)(=O)O [Rasagiline mesilate] (top concentration 46.0829 µM)    top bin
C[C@H](CCC(=O)O)[C@H]1CC[C@H]2[C@@H]3[C@H](O)C[C@@H]4C[C@H](O)CC[C@]4(C)[C@H]3CC[C@]12C [Chenodeoxycholic acid] (top concentration 46.0829 µM)    top bin
C1Cc2[nH]nc(-c3nn[nH]n3)c2C1 [MK-0354] (top concentration 46.0829 µM)    top bin
O=C(NCc1ccncc1)C12C[C@H]3C[C@@H](C1)CC(c1ccc(Cl)cc1)(C3)C2 (top concentration 46.0829 µM)    middle bin
Cc1c[nH]c(-c2cnc(NCCNc3ccc(C#N)cn3)nc2-c2ccc(Cl)cc2Cl)n1 (top concentration 46.0829 µM)    middle bin
Cn1cc(/C=C/C(=O)c2cccc(F)c2)cc1/C=C/C(=O)NO [MC-1568] (top concentration 46.0829 µM)    middle bin

Q: Category of COc1ccc([S+](=O)([O-])Nc2cccnc2Nc2ccc(O)cc2)cc1 [E-7010] (top concentration 46.0829 µM) , please.
A: middle bin

Q: Another: COc1ccc2cc(-c3[nH]c(-c4ccc([S+](C)[O-])cc4)nc3-c3ccncc3)ccc2c1 (configuration not stated) [Tie-2 kinase inhibitor] (top concentration 46.0829 µM)
A: bottom bin

Q: Another: CCC(CCCC)COC(=O)C(\C#N)=C(\c1ccccc1)c2ccccc2 (configuration not stated) [Octocrylene] (top concentration 46.0829 µM)
A: bottom bin

Q: Another: OC[C@H]1O[C@H]([C@@H](F)[C@@H]1O)N2\C=C/C(=O)NC2=O (top concentration 46.0829 µM)
A: middle bin

###

Test system: SB.mhdgc-1
Test: area under the dose-response curve of % viability (trapezoidal, 11 doses) (% viability x log10 concentration); higher = less cytotoxic
Details: SB.mhdgc-1 (hereditary c.1380delA CDH1 gastric cancer)
Task for the reader: assign each of the following molecules its reported area under the dose-response curve.

Cc1noc(-c2ccc(CSCCC(=O)O)cc2)c1NC(=O)OC(C)c1ccccc1Cl (stereo unspecified) (top concentration 46.0829 µM)    541
COC1=C2C[C@@H](C)C[C@H](OC)[C@H](O)[C@@H](C)/C=C(\C)[C@H](OC(N)=O)[C@@H](OC)/C=C/C=C(\C)C(=O)NC(=CC1=O)C2=O [Geldanamycin] (top concentration 46.0829 µM)    374
C/C=C/C(=O)N(CC)c1ccccc1C [Crotamiton] (top concentration 46.0829 µM)    569

For each of the molecules below, note its area under the dose-response curve.
1. C[C@](Cc1c[nH]c2ccccc12)(NC(=O)OC1C2CC3CC(C2)CC1C3)C(=O)NC[C@H](NC(=O)CCC(=O)O)c1ccccc1 (stereo partly specified) (top concentration 46.0829 µM)
2. CCOC(=O)\C1=C(/C)N\C2=C(C1C3=CC=C(C=C3)C4=CC=CC=C4)\C(=O)CC(C)(C)C2 (stereo unspecified) [ITD-1] (top concentration 46.0829 µM)
3. C[C@]12CC[C@H]3[C@@H](CCC4=CC(=O)CC[C@@H]43)[C@@H]1CC[C@@H]2OC(=O)CCc1ccccc1 [Nandrolone phenylpropionate] (top concentration 46.0829 µM)

A:
[498, 522, 458]

###

Task for the reader: assign each of the following compounds its reported area under the dose-response curve.
Test system: SB.mhdgc-1
Test: area under the dose-response curve of % viability (trapezoidal, 11 doses) (% viability x log10 concentration); higher = less cytotoxic
Conditions: SB.mhdgc-1 (hereditary c.1380delA CDH1 gastric cancer)
Where a name gives a salt, the structure may show the parent alone.
Numbers only.

Below are worked cases with known answers.
CCC(C)SSc1ncc[nH]1 (configuration not stated) [PX-12] (top concentration 46.0829 µM)    449
COc1cc2c(Oc3ccc(NC(=O)C4(C(=O)Nc5ccc(F)cc5)CC4)cc3F)ccnc2cc1OCCCN1CCOCC1 [Foretinib] (top concentration 46.0829 µM)    386
C[C@]12CCC3c4ccc(O)cc4CCC3C1CCC2=O (some centres not stated) [Estrone] (top concentration 46.0829 µM)    449
CC1=C2N=C([NH]C2=CC(=C1)N3CCOCC3)\C4=C(NC[C@@H](O)C5=CC=CC(=C5)Cl)\C=C/NC4=O (top concentration 46.0829 µM)    314
CC1(C)SCCN([S+](=O)([O-])c2ccc(OCC#CCO)cc2)[C@H]1C(=O)NO [Apratastat] (top concentration 46.0829 µM)    548
CC(C)CC(=O)N[C@H](C(=O)N[C@H](C(=O)N[C@@H](CC(C)C)[C@@H](O)CC(=O)N[C@@H](C)C(=O)N[C@@H](CC(C)C)[C@@H](O)CC(=O)O)C(C)C)C(C)C [Pepstatin] (top concentration 46.0829 µM)    488
Cc1ccc([S+](=O)([O-])Nc2cc(Cl)ccc2C(=O)Nc2nc(-c3ccccc3)cs2)cc1 (top concentration 46.0829 µM)    519
COc1ccc(-c2nc3cc(C4=NNC(=O)CC4C)ccc3[nH]2)cc1 (configuration not stated) [Pimobendan] (top concentration 46.0829 µM)    526

For each of the compounds below, note its area under the dose-response curve.
1. CCC1(c2ccc(N)cc2)CCC(=O)NC1=O (configuration not stated) [Aminoglutethimide] (top concentration 46.0829 µM)
2. O=C(c1ccc(F)c(F)c1Nc1ccc(I)cc1F)N1CC(O)([C@H]2CCCCN2)C1 [Cobimetinib] (top concentration 46.0829 µM)
3. CC1=CC(=CC(=C1C\C2=N\CCN2)C)C(C)(C)C [Xylometazoline hydrochloride] (top concentration 46.0829 µM)
4. COc1cccc2c1CCCC2CCCN1CCN(C2CCCCC2)CC1 (configuration not stated) [PB-28] (top concentration 46.0829 µM)

A:
1. 537
2. 379
3. 460
4. 482

###

Task for the reader: assign each of the following compounds its reported area under the dose-response curve.
System: SB.mhdgc-1
Assay: area under the dose-response curve of % viability (trapezoidal, 11 doses) (% viability x log10 concentration); higher = less cytotoxic
Settings: SB.mhdgc-1 (hereditary c.1380delA CDH1 gastric cancer)
Answers are plain numbers.

CN1CC(=O)\N=C1\NC(=O)NC2=CC(=CC=C2)Cl [Fenobam] (top concentration 46.0829 µM)    487
Cc1c(C(=O)Nc2ccc(N3C[C@@H](C)O[C@@H](C)C3)nc2)cccc1-c1ccc(OC(F)(F)F)cc1 [NVP-LDE-225] (top concentration 46.0829 µM)    479

# context switch: different compound, same area under the dose-response curve
Q: GET /values?readout=area under the dose-response curve&system=SB.mhdgc-1&item= NC(=O)N/N=C/c1ccc([N+](=O)[O-])o1 [Nitrofurazone] (top concentration 46.0829 µM)
A: 499

Origin of the recorded values: the supplement of paper PMC5412046
